Reference source: ChEMBL document CHEMBL3627616

Species: Homo sapiens
Test: Selectivity ratio of IC50 for human serum BuChE to IC50 for human recombinant AChE
// boundary case: Ratio IC50 equal to 2 maps to false (0); strictly smaller maps to true (1)

Given the entry `O=C(NCCc1c[nH]c2ccccc12)c1ccc[n+](Cc2ccccc2)c1.[Br-]` , would its reported Ratio IC50 be below 2? true (1)

Given the entry `O=C(NCCc1c[nH]c2ccccc12)c1cc[n+](Cc2ccccc2F)cc1.[Br-]` , would its reported Ratio IC50 be below 2? true (1)

Given the entry `COc1ccc2[nH]cc(CCNC(=O)/C=C/c3cc[n+](Cc4ccccc4F)cc3)c2c1.[Br-]` , would its reported Ratio IC50 be below 2? false (0)

Given the entry `O=C(NCCc1c[nH]c2ccccc12)c1cc[n+](Cc2cccc(F)c2)cc1.[Br-]` , would its reported Ratio IC50 be below 2? true (1)

Given the entry `COc1ccc2[nH]cc(CCNC(=O)/C=C/c3cc[n+](Cc4cccc(F)c4)cc3)c2c1.[Br-]` , would its reported Ratio IC50 be below 2? false (0)

Given the entry `O=C(NCCc1c[nH]c2ccccc12)c1ccc[n+](Cc2ccccc2F)c1.[Br-]` , would its reported Ratio IC50 be below 2? true (1)

Given the entry `COc1ccc2[nH]cc(CCNC(=O)/C=C/c3cc[n+](Cc4ccc(F)cc4)cc3)c2c1.[Br-]` , would its reported Ratio IC50 be below 2? false (0)

Given the entry `COc1ccc2[nH]cc(CCNC(=O)CCc3cc[n+](Cc4ccc(F)cc4)cc3)c2c1.[Br-]` , would its reported Ratio IC50 be below 2? true (1)

Given the entry `Cc1ccc(C[n+]2ccc(C(=O)NCCc3c[nH]c4ccccc34)cc2)cc1.[Br-]` , would its reported Ratio IC50 be below 2? true (1)

Given the entry `O=C(NCCc1c[nH]c2ccccc12)c1cc[n+](Cc2ccccc2)cc1.[Br-]` , would its reported Ratio IC50 be below 2? true (1)

Given the entry `COc1ccc2[nH]cc(CCNC(=O)CCc3cc[n+](Cc4cccc(F)c4)cc3)c2c1.[Br-]` , would its reported Ratio IC50 be below 2? true (1)

Given the entry `Cc1cccc(C[n+]2ccc(C(=O)NCCc3c[nH]c4ccccc34)cc2)c1.[Br-]` , would its reported Ratio IC50 be below 2? false (0)

Given the entry `COc1ccc2[nH]cc(CCNC(=O)c3cc[n+](Cc4ccccc4F)cc3)c2c1.[Br-]` , would its reported Ratio IC50 be below 2? false (0)

Given the entry `COc1ccc2[nH]cc(CCNC(=O)c3cc[n+](Cc4cccc(F)c4)cc3)c2c1.[Br-]` , would its reported Ratio IC50 be below 2? false (0)

Given the entry `O=C(NCCc1c[nH]c2ccccc12)c1cc[n+](Cc2ccc(F)cc2)cc1.[Br-]` , would its reported Ratio IC50 be below 2? true (1)

Given the entry `COc1ccc2[nH]cc(CCNC(=O)c3cc[n+](Cc4ccc(F)cc4)cc3)c2c1.[Br-]` , would its reported Ratio IC50 be below 2? true (1)

Given the entry `COc1ccc2[nH]cc(CCNC(=O)c3cc[n+](Cc4ccc(OC(=O)N(C)C)cc4)cc3)c2c1.[Br-]` , would its reported Ratio IC50 be below 2? true (1)

Given the entry `COc1ccc2[nH]cc(CCNC(=O)CCc3cc[n+](Cc4ccccc4F)cc3)c2c1.[Br-]` , would its reported Ratio IC50 be below 2? true (1)

Given the entry `N#Cc1ccc(C[n+]2ccc(C(=O)NCCc3c[nH]c4ccccc34)cc2)cc1.[Br-]` , would its reported Ratio IC50 be below 2? false (0)

* * *

Molecular target: Acetylcholinesterase (Homo sapiens)
Sequence (P22303 whole entry): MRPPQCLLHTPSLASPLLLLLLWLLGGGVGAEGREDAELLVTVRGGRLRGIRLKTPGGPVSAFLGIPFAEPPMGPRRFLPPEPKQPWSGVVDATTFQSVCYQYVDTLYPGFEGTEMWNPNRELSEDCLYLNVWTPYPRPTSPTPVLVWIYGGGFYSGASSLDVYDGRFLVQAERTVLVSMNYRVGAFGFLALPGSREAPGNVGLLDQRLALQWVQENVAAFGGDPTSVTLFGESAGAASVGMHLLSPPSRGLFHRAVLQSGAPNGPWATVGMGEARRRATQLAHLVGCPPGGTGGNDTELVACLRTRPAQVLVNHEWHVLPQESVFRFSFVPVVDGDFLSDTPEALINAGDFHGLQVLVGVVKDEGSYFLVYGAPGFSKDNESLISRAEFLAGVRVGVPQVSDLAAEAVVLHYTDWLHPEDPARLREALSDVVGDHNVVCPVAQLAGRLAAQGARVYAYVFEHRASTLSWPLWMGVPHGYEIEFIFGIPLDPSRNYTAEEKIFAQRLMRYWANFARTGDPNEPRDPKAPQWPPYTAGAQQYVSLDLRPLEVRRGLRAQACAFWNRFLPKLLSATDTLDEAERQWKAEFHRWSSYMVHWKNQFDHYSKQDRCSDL
Experiment: Inhibition of human recombinant AChE using acetylthiocholine iodide as substrate preincubated for 5 mins followed by substrate addition by Ellman's method
Class boundaries, taken from values of IC50, are as follows: group 1 = under 0.5 µM, group 2 = from 0.5 µM up to 4 µM, group 3 = 4 µM and over

Sort `O=C(NCCc1c[nH]c2ccccc12)c1cc[n+](Cc2ccccc2F)cc1.[Br-]` into one of the categories. group 2

Sort `N#Cc1ccc(C[n+]2ccc(C(=O)NCCc3c[nH]c4ccccc34)cc2)cc1.[Br-]` into one of the categories. group 3

Sort `COc1ccc2[nH]cc(CCNC(=O)CCc3cc[n+](Cc4ccc(F)cc4)cc3)c2c1.[Br-]` into one of the categories. group 2

Sort `COc1ccc2[nH]cc(CCNC(=O)CCc3cc[n+](Cc4cccc(F)c4)cc3)c2c1.[Br-]` into one of the categories. group 1

Sort `O=C(NCCc1c[nH]c2ccccc12)c1cc[n+](Cc2ccc(F)cc2)cc1.[Br-]` into one of the categories. group 2

Sort `COc1ccc2[nH]cc(CCNC(=O)c3cc[n+](Cc4ccc(F)cc4)cc3)c2c1.[Br-]` into one of the categories. group 3

Sort `COc1ccc2[nH]cc(CCNC(=O)/C=C/c3cc[n+](Cc4cccc(F)c4)cc3)c2c1.[Br-]` into one of the categories. group 1

Sort `COc1ccc2[nH]cc(CCNC(=O)CCc3cc[n+](Cc4ccccc4F)cc3)c2c1.[Br-]` into one of the categories. group 2

* * *

Biological target: Cholinesterase (Homo sapiens)
Sequence (P06276 whole entry): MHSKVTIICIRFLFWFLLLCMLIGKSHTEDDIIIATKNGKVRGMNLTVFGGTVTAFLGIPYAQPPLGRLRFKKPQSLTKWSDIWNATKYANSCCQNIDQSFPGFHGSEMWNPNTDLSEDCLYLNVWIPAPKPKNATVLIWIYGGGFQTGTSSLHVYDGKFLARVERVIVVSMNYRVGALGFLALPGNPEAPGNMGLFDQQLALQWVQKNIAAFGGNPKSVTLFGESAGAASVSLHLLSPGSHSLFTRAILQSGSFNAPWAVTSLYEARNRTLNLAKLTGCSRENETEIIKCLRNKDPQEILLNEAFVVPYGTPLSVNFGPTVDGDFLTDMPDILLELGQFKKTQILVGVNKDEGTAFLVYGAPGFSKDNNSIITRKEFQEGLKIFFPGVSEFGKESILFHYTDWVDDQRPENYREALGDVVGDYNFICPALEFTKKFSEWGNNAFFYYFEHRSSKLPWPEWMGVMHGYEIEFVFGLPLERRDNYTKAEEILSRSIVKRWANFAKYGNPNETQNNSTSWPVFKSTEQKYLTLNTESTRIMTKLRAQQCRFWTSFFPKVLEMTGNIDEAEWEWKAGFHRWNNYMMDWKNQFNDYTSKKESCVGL
Exercise: for every item that follows, state its recorded IC50.
Returns: string containing the numeric result and its unit.

Would you kindly share the measured IC50 for `COc1ccc2[nH]cc(CCNC(=O)c3cc[n+](Cc4cccc(F)c4)cc3)c2c1.[Br-]` ? 7900 nM

Would you kindly share the measured IC50 for `O=C(NCCc1c[nH]c2ccccc12)c1ccc[n+](Cc2ccccc2)c1.[Br-]` ? 280 nM

Would you kindly share the measured IC50 for `COc1ccc2[nH]cc(CCNC(=O)/C=C/c3cc[n+](Cc4ccc(F)cc4)cc3)c2c1.[Br-]` ? 710 nM

Would you kindly share the measured IC50 for `COc1ccc2[nH]cc(CCNC(=O)CCc3cc[n+](Cc4ccccc4F)cc3)c2c1.[Br-]` ? 860 nM

Would you kindly share the measured IC50 for `O=C(NCCc1c[nH]c2ccccc12)c1cc[n+](Cc2ccccc2)cc1.[Br-]` ? 2800 nM

* * *

Exercise: for every item that follows, state its recorded IC50.
Give the value, in units of µM, as a plain number.

Find the measured IC50: item `O=C(NCCc1c[nH]c2ccccc12)c1ccc[n+](Cc2ccccc2F)c1.[Br-]` , target or system Cholinesterase (Homo sapiens, UniProt P06276). 0.34

Find the measured IC50: item `O=C(NCCc1c[nH]c2ccccc12)c1cc[n+](Cc2cccc(F)c2)cc1.[Br-]` , target or system Cholinesterase (Homo sapiens, UniProt P06276). 5.1

Find the measured IC50: item `COc1ccc2[nH]cc(CCNC(=O)/C=C/c3cc[n+](Cc4ccccc4F)cc3)c2c1.[Br-]` , target or system Cholinesterase (Homo sapiens, UniProt P06276). 2.3

Find the measured IC50: item `COc1ccc2[nH]cc(CCNC(=O)CCc3cc[n+](Cc4cccc(F)c4)cc3)c2c1.[Br-]` , target or system Cholinesterase (Homo sapiens, UniProt P06276). 0.72

Find the measured IC50: item `O=C(NCCc1c[nH]c2ccccc12)c1cc[n+](Cc2ccccc2F)cc1.[Br-]` , target or system Cholinesterase (Homo sapiens, UniProt P06276). 4.1

Find the measured IC50: item `Cc1ccc(C[n+]2ccc(C(=O)NCCc3c[nH]c4ccccc34)cc2)cc1.[Br-]` , target or system Cholinesterase (Homo sapiens, UniProt P06276). 8.9

Find the measured IC50: item `COc1ccc2[nH]cc(CCNC(=O)c3cc[n+](Cc4ccc(OC(=O)N(C)C)cc4)cc3)c2c1.[Br-]` , target or system Cholinesterase (Homo sapiens, UniProt P06276). 0.08

Find the measured IC50: item `COc1ccc2[nH]cc(CCNC(=O)c3cc[n+](Cc4ccc(F)cc4)cc3)c2c1.[Br-]` , target or system Cholinesterase (Homo sapiens, UniProt P06276). 7.5

Find the measured IC50: item `O=C(NCCc1c[nH]c2ccccc12)c1cc[n+](Cc2ccc(F)cc2)cc1.[Br-]` , target or system Cholinesterase (Homo sapiens, UniProt P06276). 4.8

Find the measured IC50: item `COc1ccc2[nH]cc(CCNC(=O)CCc3cc[n+](Cc4ccc(F)cc4)cc3)c2c1.[Br-]` , target or system Cholinesterase (Homo sapiens, UniProt P06276). 0.65

Find the measured IC50: item `Cc1cccc(C[n+]2ccc(C(=O)NCCc3c[nH]c4ccccc34)cc2)c1.[Br-]` , target or system Cholinesterase (Homo sapiens, UniProt P06276). 5.8

Find the measured IC50: item `COc1ccc2[nH]cc(CCNC(=O)c3cc[n+](Cc4ccccc4F)cc3)c2c1.[Br-]` , target or system Cholinesterase (Homo sapiens, UniProt P06276). 6.8

Find the measured IC50: item `COc1ccc2[nH]cc(CCNC(=O)/C=C/c3cc[n+](Cc4cccc(F)c4)cc3)c2c1.[Br-]` , target or system Cholinesterase (Homo sapiens, UniProt P06276). 1.1
